Molecular target: hERG channel (Homo sapiens, UniProt Q12809)
Construct: a Chinese Hamster Ovary cell line stably expressing the full-length ion channel
Sequence (Q12809 whole entry): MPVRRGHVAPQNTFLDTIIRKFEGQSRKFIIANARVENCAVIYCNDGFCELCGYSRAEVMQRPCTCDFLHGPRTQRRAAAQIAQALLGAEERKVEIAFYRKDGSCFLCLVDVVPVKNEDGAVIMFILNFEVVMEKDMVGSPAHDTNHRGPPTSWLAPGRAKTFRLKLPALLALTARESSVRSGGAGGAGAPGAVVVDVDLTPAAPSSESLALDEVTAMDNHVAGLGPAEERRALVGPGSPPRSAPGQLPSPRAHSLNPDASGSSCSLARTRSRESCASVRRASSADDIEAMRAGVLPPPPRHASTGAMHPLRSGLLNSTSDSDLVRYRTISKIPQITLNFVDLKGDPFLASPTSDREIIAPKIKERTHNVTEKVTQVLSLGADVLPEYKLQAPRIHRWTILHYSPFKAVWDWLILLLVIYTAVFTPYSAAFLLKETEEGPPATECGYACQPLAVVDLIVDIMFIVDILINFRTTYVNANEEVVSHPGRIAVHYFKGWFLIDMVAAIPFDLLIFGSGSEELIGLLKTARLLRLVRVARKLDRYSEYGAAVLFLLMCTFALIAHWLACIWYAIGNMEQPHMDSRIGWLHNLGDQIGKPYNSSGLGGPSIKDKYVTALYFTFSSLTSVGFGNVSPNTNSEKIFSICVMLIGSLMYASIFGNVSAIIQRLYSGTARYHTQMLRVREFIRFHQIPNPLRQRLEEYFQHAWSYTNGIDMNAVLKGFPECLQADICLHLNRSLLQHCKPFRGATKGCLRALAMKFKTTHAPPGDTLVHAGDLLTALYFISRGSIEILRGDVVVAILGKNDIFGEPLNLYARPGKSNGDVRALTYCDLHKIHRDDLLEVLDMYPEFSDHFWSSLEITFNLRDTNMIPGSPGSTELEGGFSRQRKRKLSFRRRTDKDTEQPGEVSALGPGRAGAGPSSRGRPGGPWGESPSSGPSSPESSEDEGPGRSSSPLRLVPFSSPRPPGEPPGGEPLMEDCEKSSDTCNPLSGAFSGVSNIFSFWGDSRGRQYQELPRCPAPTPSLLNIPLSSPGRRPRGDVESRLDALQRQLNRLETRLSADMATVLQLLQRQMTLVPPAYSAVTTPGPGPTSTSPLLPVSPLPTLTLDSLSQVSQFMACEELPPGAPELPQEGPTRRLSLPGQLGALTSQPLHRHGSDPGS
Assay: hERG channel inhibition assay (patch clamp)
Conditions: whole-cell patch clamp, CHO cell line expressing hERG
Readout type: IC50
Give your result as the value with the unit written after it.

Which IC50 is reported for this compound? CN(C)C[C@H](c1cccc(Br)c1)n1ccc(-c2c[nH]c3ncc(N4CCOCC4)cc23)cc1=O [Compound no5 (S)]
20.5 µM

* * *

Assay: PK experiments in mice
Assay type: in vivo
Conditions: mouse, plasma; male BalbC mice, @20 mpk PO; @1 mpk IV
Readout type: half-life
Give your result as the value with the unit written after it.

Which half-life is reported for this compound? CN(C)C[C@H](c1cccc(Br)c1)n1ccc(-c2c[nH]c3ncc(N4CCOCC4)cc23)cc1=O [Compound no5 (S)]
1.83 h
